Entry source: patent US20240158418A1

Each entry below lists one item and its recorded DC50 value.
molecular target: EGFR L858R-T790M (Homo sapiens, UniProt P00533, L858R/T790M); construct: NCI-H1975 (harboring EGFR heterozygous L858R-T790M mutations); host or cells: NCI-H1975; experiment: EGFR degradation, Total EGFR (L858R-specific) HTRF, NCI-H1975; format: cell-based; conditions: Table 9B; NCI-H1975 cells, 6 hours, Total EGFR HTRF; read-out: H1975 EGFR DC50
Sequence (P00533 25-1210 T790M/L858R): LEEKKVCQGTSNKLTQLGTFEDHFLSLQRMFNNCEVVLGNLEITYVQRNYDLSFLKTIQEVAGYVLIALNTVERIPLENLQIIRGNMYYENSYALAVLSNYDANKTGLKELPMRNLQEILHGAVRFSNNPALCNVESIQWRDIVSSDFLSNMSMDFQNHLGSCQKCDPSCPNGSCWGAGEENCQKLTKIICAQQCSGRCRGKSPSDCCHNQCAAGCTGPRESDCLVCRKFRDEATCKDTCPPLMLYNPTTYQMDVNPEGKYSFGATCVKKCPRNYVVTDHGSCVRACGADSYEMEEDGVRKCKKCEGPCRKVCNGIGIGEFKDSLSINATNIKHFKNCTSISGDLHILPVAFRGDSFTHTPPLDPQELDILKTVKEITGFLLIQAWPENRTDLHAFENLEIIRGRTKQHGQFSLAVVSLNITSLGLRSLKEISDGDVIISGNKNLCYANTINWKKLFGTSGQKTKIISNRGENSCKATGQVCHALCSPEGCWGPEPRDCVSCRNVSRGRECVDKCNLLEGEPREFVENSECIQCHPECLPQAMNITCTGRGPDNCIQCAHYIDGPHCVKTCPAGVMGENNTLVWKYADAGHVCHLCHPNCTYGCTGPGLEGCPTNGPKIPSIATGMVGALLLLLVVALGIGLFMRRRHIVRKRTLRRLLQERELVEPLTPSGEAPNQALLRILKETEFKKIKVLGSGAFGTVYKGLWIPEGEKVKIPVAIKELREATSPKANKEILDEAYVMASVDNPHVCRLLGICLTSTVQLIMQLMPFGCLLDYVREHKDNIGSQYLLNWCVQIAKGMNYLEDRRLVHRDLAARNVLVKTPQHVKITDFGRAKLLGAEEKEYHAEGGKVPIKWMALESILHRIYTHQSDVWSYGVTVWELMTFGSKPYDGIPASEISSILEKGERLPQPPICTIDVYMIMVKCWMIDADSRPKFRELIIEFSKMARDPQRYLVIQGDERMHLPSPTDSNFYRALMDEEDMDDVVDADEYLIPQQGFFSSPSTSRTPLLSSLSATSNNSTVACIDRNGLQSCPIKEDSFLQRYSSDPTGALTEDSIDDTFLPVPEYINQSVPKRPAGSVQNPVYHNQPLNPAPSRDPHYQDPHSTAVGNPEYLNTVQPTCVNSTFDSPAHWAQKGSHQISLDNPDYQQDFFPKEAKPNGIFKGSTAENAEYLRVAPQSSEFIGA

Example compounds with recorded DC50:
compound	DC50
O=C1CCC(Nc2ccc(C3CCC(CC(=O)N4CCN(c5ccc(-c6cc(F)c7c(c6)C(=O)N(C(C(=O)Nc6nccs6)c6ncn8c6CCC8)C7)cc5)CC4)CC3)cc2)C(=O)N1 (centres unmarked)	< 0.05 µM
O=C1CCN(c2ccc(N3CCC(O)(CC(=O)N4CC5(C4)CN(c4ccc(-c6cc(F)c7c(c6)C(=O)N(C(C(=O)Nc6nccs6)c6ncn8c6CCC8)C7)cc4)C5)CC3)c(C(F)(F)F)c2)C(=O)N1 (centres unmarked)	0.05 to 0.15 µM
O=C1CCC(Nc2ccc(N3CCC(O)(CC(=O)N4CC5(C4)CN(c4ccc(-c6cc(F)c7c(c6)C(=O)N(C(C(=O)Nc6ccccn6)c6ncn8c6CCC8)C7)cc4)C5)CC3)c(F)c2)C(=O)N1 (centres unmarked)	< 0.05 µM
Cn1nc(N2CCC(=O)NC2=O)c2ccc([C@@H]3CCN(C(=O)CN4CC5(CCN(c6ccc(-c7cc(F)c8c(c7)C(=O)N(C(C(=O)Nc7nccs7)c7ncn9c7CCC9)C8)cc6)CC5)C4)CC3(F)F)cc21 (some centres unmarked)	< 0.05 µM

# input for lookup
Prompt: Given the compound O=C1CCC(Nc2ccc(N3CCC(O)(CC(=O)N4CC5(CCN(c6ccc(-c7cc(F)c8c(c7)C(=O)N(C(C(=O)Nc7nccs7)c7ncn9c7CCC9)C8)cc6)CC5)C4)CC3)c(F)c2)C(=O)N1 (centres unmarked) , write its reported DC50.
Response: < 0.05 µM

====

biological target: EGFR L858R (Homo sapiens, UniProt P00533, L858R); test: EGFR degradation, Total EGFR (L858R-specific) HTRF, NCI-H3255; type: cell-based; set-up: NCI-H3255 (harboring EGFR heterozygous L858R mutation); host or cells: NCI-H3255; conditions: H3255 (L858R), 6 hours; read-out: tEGFR DC50
Sequence (P00533 25-1210 L858R): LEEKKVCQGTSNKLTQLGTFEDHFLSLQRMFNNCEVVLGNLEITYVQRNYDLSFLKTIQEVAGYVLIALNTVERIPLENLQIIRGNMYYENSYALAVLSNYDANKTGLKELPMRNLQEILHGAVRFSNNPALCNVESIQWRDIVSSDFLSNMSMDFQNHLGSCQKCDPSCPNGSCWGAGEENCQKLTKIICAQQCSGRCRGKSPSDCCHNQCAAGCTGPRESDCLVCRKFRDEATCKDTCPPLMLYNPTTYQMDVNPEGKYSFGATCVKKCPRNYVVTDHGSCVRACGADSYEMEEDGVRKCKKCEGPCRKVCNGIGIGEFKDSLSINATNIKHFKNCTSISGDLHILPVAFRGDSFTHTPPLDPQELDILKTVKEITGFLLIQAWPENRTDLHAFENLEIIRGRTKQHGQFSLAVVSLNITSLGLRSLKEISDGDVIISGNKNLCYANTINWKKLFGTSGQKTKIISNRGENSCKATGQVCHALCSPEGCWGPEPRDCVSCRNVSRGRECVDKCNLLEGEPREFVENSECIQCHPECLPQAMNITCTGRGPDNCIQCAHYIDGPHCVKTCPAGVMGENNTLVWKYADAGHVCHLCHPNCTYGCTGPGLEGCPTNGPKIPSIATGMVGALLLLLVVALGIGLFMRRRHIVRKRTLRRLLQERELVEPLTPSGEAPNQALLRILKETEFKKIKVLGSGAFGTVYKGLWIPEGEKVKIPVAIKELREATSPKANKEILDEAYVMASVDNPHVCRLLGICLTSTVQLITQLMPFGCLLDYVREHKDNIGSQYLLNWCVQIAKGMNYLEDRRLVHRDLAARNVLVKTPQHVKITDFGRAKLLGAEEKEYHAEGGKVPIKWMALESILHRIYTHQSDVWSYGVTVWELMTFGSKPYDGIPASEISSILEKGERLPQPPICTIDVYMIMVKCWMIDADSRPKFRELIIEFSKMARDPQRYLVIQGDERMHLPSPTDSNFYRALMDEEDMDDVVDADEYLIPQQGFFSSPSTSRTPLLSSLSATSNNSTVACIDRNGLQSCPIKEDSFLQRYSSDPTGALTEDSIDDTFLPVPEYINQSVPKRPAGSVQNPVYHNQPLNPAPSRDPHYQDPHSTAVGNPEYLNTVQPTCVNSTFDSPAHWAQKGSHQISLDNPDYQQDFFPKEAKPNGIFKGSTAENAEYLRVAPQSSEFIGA
measurementLabel: DC50 (nM)

molecule	testSystem	measurementLabel	uom	endpointResult
Cn1nc(N2CCC(=O)NC2=O)c2ccc([C@H]3CCN(CC(=O)N4CC5(C4)CN(c4ccc(-c6cc(F)c7c(c6)C(=O)N(C(C(=O)Nc6nccs6)c6ncn8c6CCC8)C7)cc4)C5)CC3(F)F)cc21 (some centres unmarked)	EGFR L858R (Homo sapiens, UniProt P00533, L858R)	DC50	nM	6

1: Cn1nc(N2CCC(=O)NC2=O)c2ccc(C3CCN(CC(=O)N4CC5(C4)CN(c4ccc(-c6cc(F)c7c(c6)C(=O)N(C(C(=O)Nc6nccs6)c6ncn8c6CCC8)C7)cc4)C5)CC3(F)F)cc21 (centres unmarked)
2: Cn1nc(N2CCC(=O)NC2=O)c2ccc(C3CCN(CC(=O)N4CC5(C4)CN(c4ccc(-c6cc(F)c7c(c6)C(=O)N(C(C(=O)Nc6ccccn6)c6ncn8c6CCC8)C7)cc4)C5)CC3(F)F)cc21 (centres unmarked)
Prompt: Exercise: compare 1 and 2 ; which one has the greater DC50? Kindly state the label of the option you pick.
Response: 2
